Origin of measurements: patent US11466044B2

Each record here notes measured MIC AG038 MRSA.
system: MRSA; assay: MIC by broth microdilution, MRSA isolates; type: cell-based; settings: clinical isolate AG038
Supply the numeric figure in µg/mL, leaving out any unit text.

molecule | MIC AG038 MRSA / µg/mL
NCC1OC(OC2C(CO)OC(OC3C(O)C(N)CC(N)C3OC3OC4C(O)CCCOC4C(O)C3N)C2O)C(N)C(O)C1O (stereo not drawn) | 2

Consider the molecule `NC[C@H]1O[C@H](O[C@H]2[C@H](O[C@@H]3O[C@H](CO)[C@@H](O)[C@H]3O)[C@@H](O)[C@H](N)C[C@@H]2N)[C@H](N)C[C@@H]1O` and give its recorded MIC AG038 MRSA.
8
